- Assay Explanation: AUC (all) in rat at 10 mg/kg by LC-MS/MS analysis
- Assay type: ADME, organism-based
- Set-up: dose 10 mg/kg
- Run Parameters: in vivo
Measured Quantity: AUC

Request: Value lookup for AUC; key = CC(=O)N[C@@H](CC(C)C)C(=O)N[C@H](C(=O)N[C@@H](Cc1ccccc1)C(=O)N[C@]1(C)CCCCCC/C=C/CCC[C@@](C)(C(=O)N[C@@H](C)C(=O)N[C@@H](C)C(=O)N[C@@H](C)C(=O)N[C@@H](C)C(=O)N[C@@H](C)C(=O)N[C@H](C)C(N)=O)NC(=O)[C@H](CC(C)C)NC(=O)[C@H](CCC(N)=O)NC(=O)[C@H](C)NC(=O)[C@H](Cc2c[nH]c3ccccc23)NC(=O)[C@H](Cc2ccc(O)cc2)NC(=O)[C@H](CCC(=O)O)NC1=O)[C@@H](C)O
Response: 562 µg·h/mL

---

- Assay Explanation: Half life in rat at 10 mg/kg by LC-MS/MS analysis
- Format: ADME, organism-based
- Run Parameters: in vivo
Measured Quantity: half-life (h)
Answers are plain numbers, in h.

Request: Value lookup for half-life; key = CC(=O)N[C@@H](CC(C)C)C(=O)N[C@H](C(=O)N[C@@H](Cc1ccccc1)C(=O)N[C@]1(C)CCCCCC/C=C/CCC[C@@](C)(C(=O)N[C@@H](C)C(=O)N[C@@H](C)C(=O)N[C@@H](C)C(=O)N[C@@H](C)C(=O)N[C@@H](C)C(=O)N[C@H](C)C(N)=O)NC(=O)[C@H](CC(C)C)NC(=O)[C@H](CCC(N)=O)NC(=O)[C@H](C)NC(=O)[C@H](Cc2c[nH]c3ccccc23)NC(=O)[C@H](Cc2ccc(O)cc2)NC(=O)[C@H](CCC(=O)O)NC1=O)[C@@H](C)O
Response: 3.8

---

- Assay Explanation: Cmax in rat at 5 mg/kg by LC-MS/MS analysis
- Assay type: ADME, organism-based
- Design: dose 5 mg/kg
- Run Parameters: in vivo
Measured Quantity: Cmax

Request: Value lookup for Cmax; key = CC(=O)N[C@@H](CC(C)C)C(=O)N[C@H](C(=O)N[C@@H](Cc1ccccc1)C(=O)N[C@]1(C)CCCCCC/C=C/CCC[C@@](C)(C(=O)N[C@@H](C)C(=O)N[C@@H](C)C(=O)N[C@@H](C)C(=O)N[C@@H](C)C(=O)N[C@@H](C)C(=O)N[C@H](C)C(N)=O)NC(=O)[C@H](CC(C)C)NC(=O)[C@H](CCC(N)=O)NC(=O)[C@H](C)NC(=O)[C@H](Cc2c[nH]c3ccccc23)NC(=O)[C@H](Cc2ccc(O)cc2)NC(=O)[C@H](CCC(=O)O)NC1=O)[C@@H](C)O
Response: 95.9 µg/mL

---

- Assay Explanation: Clearance in mouse at 5 mg/kg by LC-MS/MS analysis
- Type: ADME, organism-based
- Run Parameters: in vivo
Measured Quantity: clearance (mL/min/kg)
Give bare numbers, in mL/min/kg.

Request: Value lookup for clearance; key = CC(=O)N[C@@H](CC(C)C)C(=O)N[C@H](C(=O)N[C@@H](Cc1ccccc1)C(=O)N[C@]1(C)CCCCCC/C=C/CCC[C@@](C)(C(=O)N[C@@H](C)C(=O)N[C@@H](C)C(=O)N[C@@H](C)C(=O)N[C@@H](C)C(=O)N[C@@H](C)C(=O)N[C@H](C)C(N)=O)NC(=O)[C@H](CC(C)C)NC(=O)[C@H](CCC(N)=O)NC(=O)[C@H](C)NC(=O)[C@H](Cc2c[nH]c3ccccc23)NC(=O)[C@H](Cc2ccc(O)cc2)NC(=O)[C@H](CCC(=O)O)NC1=O)[C@@H](C)O
Response: 0.183

---

- Assay Explanation: Clearance in cynomolgous monkey at 10 mg/kg by LC-MS/MS analysis
- Assay type: ADME, organism-based, Macaca fascicularis
- Run Parameters: cynomolgus monkey, in vivo
Measured Quantity: clearance (mL/min/kg)
One number for each entry, in mL/min/kg.

Request: Value lookup for clearance; key = CC(=O)N[C@@H](CC(C)C)C(=O)N[C@H](C(=O)N[C@@H](Cc1ccccc1)C(=O)N[C@]1(C)CCCCCC/C=C/CCC[C@@](C)(C(=O)N[C@@H](C)C(=O)N[C@@H](C)C(=O)N[C@@H](C)C(=O)N[C@@H](C)C(=O)N[C@@H](C)C(=O)N[C@H](C)C(N)=O)NC(=O)[C@H](CC(C)C)NC(=O)[C@H](CCC(N)=O)NC(=O)[C@H](C)NC(=O)[C@H](Cc2c[nH]c3ccccc23)NC(=O)[C@H](Cc2ccc(O)cc2)NC(=O)[C@H](CCC(=O)O)NC1=O)[C@@H](C)O
Response: 0.127

---

- Assay Explanation: Plasma protein binding in rat at 2 to 50 uM
- Assay type: ADME, cell-free
- Run Parameters: dose 2-50 µM, read-out: PPB (converted)
Measured Quantity: fraction unbound at up to 50 µM
One number for each entry.

Request: Value lookup for fraction unbound at up to 50 µM; key = CC(=O)N[C@@H](CC(C)C)C(=O)N[C@H](C(=O)N[C@@H](Cc1ccccc1)C(=O)N[C@]1(C)CCCCCC/C=C/CCC[C@@](C)(C(=O)N[C@@H](C)C(=O)N[C@@H](C)C(=O)N[C@@H](C)C(=O)N[C@@H](C)C(=O)N[C@@H](C)C(=O)N[C@H](C)C(N)=O)NC(=O)[C@H](CC(C)C)NC(=O)[C@H](CCC(N)=O)NC(=O)[C@H](C)NC(=O)[C@H](Cc2c[nH]c3ccccc23)NC(=O)[C@H](Cc2ccc(O)cc2)NC(=O)[C@H](CCC(=O)O)NC1=O)[C@@H](C)O
Response: 0.08

---

- Assay Explanation: Plasma protein binding in human at 250 uM
- Type: ADME, cell-free
- Run Parameters: read-out: PPB (converted)
Measured Quantity: fraction unbound at 250 µM

Request: Value lookup for fraction unbound at 250 µM; key = CC(=O)N[C@@H](CC(C)C)C(=O)N[C@H](C(=O)N[C@@H](Cc1ccccc1)C(=O)N[C@]1(C)CCCCCC/C=C/CCC[C@@](C)(C(=O)N[C@@H](C)C(=O)N[C@@H](C)C(=O)N[C@@H](C)C(=O)N[C@@H](C)C(=O)N[C@@H](C)C(=O)N[C@H](C)C(N)=O)NC(=O)[C@H](CC(C)C)NC(=O)[C@H](CCC(N)=O)NC(=O)[C@H](C)NC(=O)[C@H](Cc2c[nH]c3ccccc23)NC(=O)[C@H](Cc2ccc(O)cc2)NC(=O)[C@H](CCC(=O)O)NC1=O)[C@@H](C)O
Response: 0.19

---

- Assay Explanation: Clearance in rat at 5 mg/kg by LC-MS/MS analysis
- Format: ADME, organism-based
- Run Parameters: in vivo
Measured Quantity: clearance (mL/min/kg)
Answers are plain numbers, in mL/min/kg.

Request: Value lookup for clearance; key = CC(=O)N[C@@H](CC(C)C)C(=O)N[C@H](C(=O)N[C@@H](Cc1ccccc1)C(=O)N[C@]1(C)CCCCCC/C=C/CCC[C@@](C)(C(=O)N[C@@H](C)C(=O)N[C@@H](C)C(=O)N[C@@H](C)C(=O)N[C@@H](C)C(=O)N[C@@H](C)C(=O)N[C@H](C)C(N)=O)NC(=O)[C@H](CC(C)C)NC(=O)[C@H](CCC(N)=O)NC(=O)[C@H](C)NC(=O)[C@H](Cc2c[nH]c3ccccc23)NC(=O)[C@H](Cc2ccc(O)cc2)NC(=O)[C@H](CCC(=O)O)NC1=O)[C@@H](C)O
Response: 0.4

---

- Assay Explanation: Clearance in cynomolgous monkey at 5 mg/kg by LC-MS/MS analysis
- Format: ADME, organism-based, Macaca fascicularis
- Run Parameters: cynomolgus monkey, in vivo
Measured Quantity: clearance (mL/h/kg)
Answers are plain numbers, in mL/h/kg.

Request: Value lookup for clearance; key = CC(=O)N[C@@H](CC(C)C)C(=O)N[C@H](C(=O)N[C@@H](Cc1ccccc1)C(=O)N[C@]1(C)CCCCCC/C=C/CCC[C@@](C)(C(=O)N[C@@H](C)C(=O)N[C@@H](C)C(=O)N[C@@H](C)C(=O)N[C@@H](C)C(=O)N[C@@H](C)C(=O)N[C@H](C)C(N)=O)NC(=O)[C@H](CC(C)C)NC(=O)[C@H](CCC(N)=O)NC(=O)[C@H](C)NC(=O)[C@H](Cc2c[nH]c3ccccc23)NC(=O)[C@H](Cc2ccc(O)cc2)NC(=O)[C@H](CCC(=O)O)NC1=O)[C@@H](C)O
Response: 5.9

---

- Assay Explanation: AUC (all) in cynomolgous monkey at 10 mg/kg by LC-MS/MS analysis
- Type: ADME, organism-based, Macaca fascicularis
- Design: dose 10 mg/kg
- Run Parameters: cynomolgus monkey, in vivo
Measured Quantity: AUC
Answer format: number, then unit.

Request: Value lookup for AUC; key = CC(=O)N[C@@H](CC(C)C)C(=O)N[C@H](C(=O)N[C@@H](Cc1ccccc1)C(=O)N[C@]1(C)CCCCCC/C=C/CCC[C@@](C)(C(=O)N[C@@H](C)C(=O)N[C@@H](C)C(=O)N[C@@H](C)C(=O)N[C@@H](C)C(=O)N[C@@H](C)C(=O)N[C@H](C)C(N)=O)NC(=O)[C@H](CC(C)C)NC(=O)[C@H](CCC(N)=O)NC(=O)[C@H](C)NC(=O)[C@H](Cc2c[nH]c3ccccc23)NC(=O)[C@H](Cc2ccc(O)cc2)NC(=O)[C@H](CCC(=O)O)NC1=O)[C@@H](C)O
Response: 1350 µg·h/mL
